Field: inhibition at 1 µM. Provide a value for each of the compounds that follow.
target.system: RORγt (Homo sapiens)
assay.protocol: RORγt binding test using fluorescent-labeled cholesterol (TR-FRET)
experimental.parameters: read-out: Binding inhibitory rate of fluorescent-labeled cholesterol to RORγt at test compound 1 μM (%)
Supply the numeric figure in %, leaving out any unit text.

Q: Let me know recorded inhibition at 1 µM for COc1ccc2c(c1)CCN(C(=O)[C@@H]1CNC(=O)C1)[C@H]2C(=O)Nc1ccc(C(C)(C)C)c(F)c1 , thanks.
Ans: 102

Q: Note down inhibition at 1 µM recorded for COc1ccc2c(c1)CCN(C(=O)c1cc(O)no1)C2C(=O)Nc1ccc(C(C)(C)C)c(F)c1 (stereo not shown)
Ans: 100

Q: Return the recorded inhibition at 1 µM value; entry: COCc1ccc2c(c1)CCN(C(=O)c1cc(O)no1)[C@H]2C(=O)Nc1cc(F)c([Si](C)(C)C)c(F)c1
Ans: 103

Q: # return recorded inhibition at 1 µM for input COc1ccc2c(n1)CCN(C(=O)Cc1cc(O)no1)[C@H]2C(=O)Nc1ccc(C(C)(C)C)c(F)c1
Ans: 101

Q: Read off the recorded inhibition at 1 µM for COc1ccc2c(c1)CCN(C(=O)Cc1ccc(OC)nc1)[C@H]2C(=O)Nc1ccc(C(C)(C)C)c(F)c1
Ans: 101

Q: Recall and state the measured inhibition at 1 µM for COc1ccc2c(c1)CCN(C(=O)Cn1cnccc1=O)[C@H]2C(=O)Nc1ccc(C(C)(C)C)c(F)c1 .
Ans: 102

Q: Note inhibition at 1 µM for the compound shown: COCc1ccc2c(n1)CCN(C(=O)Cc1cc(O)no1)[C@H]2C(=O)Nc1cc(F)c([Si](C)(C)C)c(F)c1
Ans: 102

====

target.system: RORγt (Homo sapiens, UniProt P51449)
assay.protocol: Jurkat reporter test (human IL-17 ROR response element luciferase, RORγt vector)
Assay type: cell-based
experimental.parameters: Jurkat, read-out: Luminescence level inhibitory rate at test compound 3 μM (%)
value.type: inhibition at 3 µM (%)
Just the number in %, nothing appended.

Q: Return value of inhibition at 3 µM for input COc1ccc2c(n1)CCN(C(=O)Cc1cc(O)no1)[C@H]2C(=O)Nc1cc(F)c([Si](C)(C)C)c(F)c1 , no commentary.
Ans: 102

Q: For the molecule C[Si](C)(C)c1c(F)cc(NC(=O)[C@H]2c3ccc(OC(F)F)cc3CCN2C(=O)CCC(=O)O)cc1F , give its reported inhibition at 3 µM.
Ans: 101

Q: Determine from records and report inhibition at 3 µM for C[Si](C)(C)c1c(F)cc(NC(=O)[C@H]2c3ccc(S(C)(=O)=O)cc3CCN2C(=O)CCCC(=O)O)cc1F
Ans: 93

Q: Answer with reported inhibition at 3 µM of COc1ccc2c(n1)CCN(C(=O)N1CC(CC(=O)O)C1)[C@H]2C(=O)Nc1cc(F)c([Si](C)(C)C)c(F)c1
Ans: 102

Q: For the molecule COCc1ccc2c(c1)CCN(C(=O)c1cc(O)no1)[C@H]2C(=O)Nc1cc(F)c([Si](C)(C)C)c(F)c1 , give its reported inhibition at 3 µM.
Ans: 103

Q: Indicate the recorded inhibition at 3 µM value for this molecule: COCc1ccc2c(n1)CCN(C(=O)Cc1cc(O)no1)[C@H]2C(=O)Nc1cc(F)c([Si](C)(C)C)c(F)c1
Ans: 104

Q: Retrieve inhibition at 3 µM measured for CCOc1ccc2c(c1)CCN(C(=O)CCCC(=O)O)[C@H]2C(=O)Nc1ccc([Si](C)(C)C)c(C#N)c1 and print it.
Ans: 101

====

target.system: RORγt (Homo sapiens)
assay.protocol: Cofactor recruitment test (Alpha Screen, biotinylated SRC-1 peptide)
Format: biochemical
experimental.parameters: read-out: Signal value inhibitory rate at test compound 1 μM (%)
value.type: inhibition at 1 µM (%)
Respond with the bare value in %.

Q: For the compound CCOCC(C)(C)c1c(F)cc(NC(=O)[C@H]2c3ccc(OC)cc3CCN2C(=O)CCCC(=O)O)cc1F , report inhibition at 1 µM.
Ans: 82

Q: For the compound CCOc1ccc2c(c1)CCN(C(=O)CCCC(=O)O)[C@H]2C(=O)Nc1cc(F)c(C(C)(C)COCC(F)F)c(F)c1 , report inhibition at 1 µM.
Ans: 84

Q: Consider the compound C[Si](C)(C)c1c(F)cc(NC(=O)[C@H]2c3ccc4c(c3CCN2C(=O)CCCC(=O)O)OCO4)cc1F and give its recorded inhibition at 1 µM.
Ans: 101

Q: Specify measured inhibition at 1 µM for C[Si](C)(C)c1ccc(NC(=O)[C@H]2c3ccc(OC(F)F)cc3CCN2C(=O)CCCC(=O)O)cc1F .
Ans: 87

Q: Input C[Si](C)(C)c1c(F)cc(NC(=O)[C@H]2c3ccc4c(c3CCN2C(=O)N2CC(CC(=O)O)C2)OCO4)cc1F , output reported inhibition at 1 µM.
Ans: 101

Q: Please give the documented inhibition at 1 µM of COc1ccc2c(c1)CCN(C(=O)Cc1cc(O)no1)[C@H]2C(=O)Nc1cc(F)c(C(C)(C)COCC2CC2)c(F)c1
Ans: 74

Q: Respond only with inhibition at 1 µM recorded for CCOc1ccc2c(c1)CCN(C(=O)CCCC(=O)O)[C@H]2C(=O)Nc1cc(F)c(C(C)(C)COC)c(F)c1
Ans: 96

Q: Output inhibition at 1 µM of CCOc1ccc2c(n1)CCN(C(=O)CCCC(=O)O)[C@H]2C(=O)Nc1ccc([Si](C)(C)C)c(F)c1
Ans: 97

Q: Give recorded inhibition at 1 µM. CCOc1ccc2c(c1)CCN(C(=O)c1cc(O)no1)[C@H]2C(=O)Nc1cc(F)c(C(C)(C)COCC(F)F)c(F)c1
Ans: 85

Q: Provide inhibition at 1 µM value for the following compound: COc1ccc2c(n1)CCN(C(=O)c1cc(O)no1)[C@H]2C(=O)Nc1cc(F)c([Si](C)(C)C)c(F)c1
Ans: 99

Q: Return reported inhibition at 1 µM. Input compound: CCOC(=O)C(C)(C)c1ccc(NC(=O)C2c3ccc(OC)cc3CCN2C(=O)c2cc(O)no2)cc1F (centres unmarked)
Ans: 98.3

Q: Dear colleague, please send me the reported inhibition at 1 µM for CC1(C)CCc2cc(NC(=O)[C@H]3c4ccc5c(c4CCN3C(=O)CCCC(=O)O)OCO5)cc(F)c21 when you can.
Ans: 102

Q: State its inhibition at 1 µM: CCOc1ccc2c(c1)CCN(C(=O)CCC(=O)O)[C@H]2C(=O)Nc1cc(F)c([Si](C)(C)C)c(F)c1
Ans: 93

Q: Annotate the compound CCOc1ccc2c(n1)CCN(C(=O)Cc1cc(O)no1)[C@H]2C(=O)Nc1cc(F)c2c(c1)CCC2(C)C with its measured inhibition at 1 µM.
Ans: 89

====

Record form. Attribute: inhibition at 1 µM. Fill in for each entry.
target.system: RORγt (Homo sapiens)
Sequence (P51449 1-497 isoform P51449-2): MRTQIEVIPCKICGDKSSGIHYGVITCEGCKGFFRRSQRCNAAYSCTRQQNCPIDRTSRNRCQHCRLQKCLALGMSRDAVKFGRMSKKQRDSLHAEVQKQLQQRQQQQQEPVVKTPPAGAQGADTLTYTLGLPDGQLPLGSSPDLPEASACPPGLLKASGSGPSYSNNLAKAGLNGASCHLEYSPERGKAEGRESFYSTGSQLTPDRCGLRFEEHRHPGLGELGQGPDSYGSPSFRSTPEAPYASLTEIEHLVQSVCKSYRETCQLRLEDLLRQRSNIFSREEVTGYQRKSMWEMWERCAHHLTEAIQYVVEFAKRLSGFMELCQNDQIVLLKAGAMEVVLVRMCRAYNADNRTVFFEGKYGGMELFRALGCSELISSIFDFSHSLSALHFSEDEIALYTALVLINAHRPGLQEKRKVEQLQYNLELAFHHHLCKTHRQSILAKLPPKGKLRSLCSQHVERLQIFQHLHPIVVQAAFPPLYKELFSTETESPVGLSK
assay.protocol: RORγt binding test using fluorescent-labeled synthetic ligand (TR-FRET)
experimental.parameters: read-out: Binding inhibitory rate of fluorescent-labeled synthetic ligand to RORγt at test compound 1 μM (%)
Protocol: RORγt Binding Test Using Fluorescent-labeled Synthetic Ligand The binding activity of the test compound to RORγt was measured by a time resolved fluorescence resonance energy transfer method (TR-FRET) utilizing histidine-tagged RORγt, fluorescent-labeled synthetic ligand, and terbium-labeled anti-histidine tag antibody (Invitrogen). First, a test compound diluted with an assay buffer (20 mM Tris-HCl (pH 7.5), 100 mM NaCl, 1 mM DTT, 0.1% BSA) was added to a 384 well plate by 3 μL. […]
Please reply with the bare figure in % and do not write the unit itself.

Q: Fill: inhibition at 1 µM (RORγt (Homo sapiens)) for this compound COc1ccc2c(n1)CCN(C(=O)c1cc(O)no1)[C@H]2C(=O)Nc1ccc([Si](C)(C)C)c(F)c1
Ans: 102

Q: Provide inhibition at 1 µM, tested on RORγt (Homo sapiens), for COCc1ccc2c(c1)CCN(C(=O)Cc1cc(O)no1)[C@H]2C(=O)Nc1cc(F)c2c(c1)CCC2(C)C .
Ans: 102

Q: Fill in: inhibition at 1 µM on RORγt (Homo sapiens), entry COc1ccc2c(c1)CCN(C(=O)Cc1nnc(C)o1)[C@H]2C(=O)Nc1cc(F)c(C(C)(C)C(=O)N2CCCC2)c(F)c1
Ans: 101

Q: Write down measured inhibition at 1 µM (RORγt (Homo sapiens)) for this compound. COc1ccc2c(c1)CCN(C(=O)c1cc(O)no1)[C@H]2C(=O)Nc1cc(F)c2c(c1)CCC2(C)C
Ans: 101
